Assay: Stability in the human blood
Type: in vitro ADME
Conditions: 2 μM, 30 min
Each record here notes measured % 30 min (residue percentage).
Give just the number in %; leave the unit off.

compound	quantitativeResult
CC(C)OC(=O)[C@H](C)N[P@](=O)(CO[C@H](C)Cn1cnc2c(N)ncnc21)OCc1ccccc1 (single isomer, unassigned) [Compound 3b]	96.4

Ask: Fill in the blank: the reported % 30 min (residue percentage) of CC1CC(OC(=O)C(O)c2ccccc2)CC(C)(C)N1C (centres unmarked) [Eucatropine] is ____.
Reply: 37.0

Ask: Now give it for CC(C)OC(=O)[C@H](C)N[P@](=O)(CO[C@H](C)Cn1cnc2c(N)ncnc21)Oc1ccccc1 [GS-7340] too.
Reply: 91.0

Ask: Further, for CC(C)OC(=O)[C@H](C)N[P@@](=O)(CO[C@H](C)Cn1cnc2c(N)ncnc21)OCc1ccccc1 (single isomer, unassigned) [Compound 3a] ?
Reply: 98.9

Ask: Same question for Cc1ccccc1CO[P@@](=O)(CO[C@H](C)Cn1cnc2c(N)ncnc21)N[C@@H](C)C(=O)OC(C)C [Compound 7b] please.
Reply: 91.6

---

EC50 for assorted compounds
System: HBV
Experiment: Cell based anti-HBV activity test, HBV DNA in HepG2.2.15 cell supernatant by qPCR
Settings: HepG2.2.15 cells, HBV DNA in supernatant on 8th day; Table 3; read-out: EC50
The reply should be a number in nM, with the unit left off.

compound	EC50 / nM
CC(C)OC(=O)CN[P@](=O)(CO[C@H](C)Cn1cnc2c(N)ncnc21)OCc1ccccc1 (single isomer, unassigned) [Compound 1b]	290

Let us move to another entry and its EC50.
Ask: Returns the measured EC50 for the input compound. Input: C[C@H](Cn1cnc2c(N)ncnc21)OC[P@](=O)(NCC(=O)OCc1ccccc1)OCc1ccccc1 (single isomer, unassigned) [Compound 5a]
Reply: 214

---

Experiment: Stability in the simulated gastric fluid
Assay type: in vitro ADME
Conditions: 10 μM, 60 min
resultType: % 60 min (residue percentage)
Reply with a number, then the unit it belongs to.

// below: answered molecules
molecule	% 60 min (residue percentage)
CC(C)OC(=O)[C@H](C)N[P@](=O)(CO[C@H](C)Cn1cnc2c(N)ncnc21)OCc1ccccc1 (single isomer, unassigned) [Compound 3b]	84.26%
CC(C)OC(=O)[C@H](C)N[P@](=O)(CO[C@H](C)Cn1cnc2c(N)ncnc21)Oc1ccccc1 [GS-7340]	95.40%
CC(C)OC(=O)[C@H](C)N[P@@](=O)(CO[C@H](C)Cn1cnc2c(N)ncnc21)OCc1ccccc1 (single isomer, unassigned) [Compound 3a]	85.40%

Turning to the following molecule.
Ask: Entry Cc1ccccc1CO[P@@](=O)(CO[C@H](C)Cn1cnc2c(N)ncnc21)N[C@@H](C)C(=O)OC(C)C [Compound 7b] : reported % 60 min (residue percentage) = ?
Reply: 82.76%

---

Assay: Stability in the human liver S9
Type: in vitro ADME
Settings: human liver S9, 1 μM
Parameter threshold = 70 µL/min/mg. Response is yes (1) when CLlint(s9) meets or exceeds it, else no (0).

compoundStructureString	classLabel
CC(C)OC(=O)[C@H](C)N[P@](=O)(CO[C@H](C)Cn1cnc2c(N)ncnc21)Oc1ccccc1	yes (1)
Cc1ccccc1CO[P@@](=O)(CO[C@H](C)Cn1cnc2c(N)ncnc21)N[C@@H](C)C(=O)OC(C)C	yes (1)

With those in mind, consider the next compound.
Ask: Please tell me: is the compound CCOc1ccc2ccc(=O)oc2c1 at or over 70 µL/min/mg in terms of CLlint(s9)?
Reply: no (0)

---

Assay: Stability in the simulated intestinal fluid
Type: in vitro ADME
Details: 10 μM, 60 min
Documented % 60 min (residue percentage) across a set of molecules
Hi! Could you send only the number? It should be in %, unit omitted.

Here are 4 molecules together with their reported answers.
molecule	unitOfMeasurement	quantitativeResult
Cc1ccccc1CO[P@@](=O)(CO[C@H](C)Cn1cnc2c(N)ncnc21)N[C@@H](C)C(=O)OC(C)C	%	31.28
CC(C)OC(=O)[C@H](C)N[P@](=O)(CO[C@H](C)Cn1cnc2c(N)ncnc21)Oc1ccccc1	%	30.09
O=C(O)CCCc1ccc(N(CCCl)CCCl)cc1	%	29.36
CC(C)OC(=O)[C@H](C)N[P@](=O)(CO[C@H](C)Cn1cnc2c(N)ncnc21)OCc1ccccc1 (single isomer, unassigned)	%	51.07

We now examine a further molecule.
Ask: // query % 60 min (residue percentage) value for entry CC(C)OC(=O)[C@H](C)N[P@@](=O)(CO[C@H](C)Cn1cnc2c(N)ncnc21)OCc1ccccc1 (single isomer, unassigned)
Reply: 53.62

---

Test: Stability in the human blood
Assay type: in vitro ADME
Conditions: 2 μM, 0 min
This listing pairs compounds with measured % 0 min (residue percentage).
Enter your answer as a number in %; do not include the unit.

Known results for compounds:
compound	% 0 min (residue percentage), %
CC1CC(OC(=O)C(O)c2ccccc2)CC(C)(C)N1C (centres unmarked) [Eucatropine]	100
CC(C)OC(=O)[C@H](C)N[P@](=O)(CO[C@H](C)Cn1cnc2c(N)ncnc21)Oc1ccccc1 [GS-7340]	100
Cc1ccccc1CO[P@@](=O)(CO[C@H](C)Cn1cnc2c(N)ncnc21)N[C@@H](C)C(=O)OC(C)C [Compound 7b]	100
CC(C)OC(=O)[C@H](C)N[P@](=O)(CO[C@H](C)Cn1cnc2c(N)ncnc21)OCc1ccccc1 (single isomer, unassigned) [Compound 3b]	100

Now look at this one.
Ask: What value of % 0 min (residue percentage) has been recorded for this entry: CC(C)OC(=O)[C@H](C)N[P@@](=O)(CO[C@H](C)Cn1cnc2c(N)ncnc21)OCc1ccccc1 (single isomer, unassigned) [Compound 3a]
Reply: 100

---

CC50 at 5 days values for the molecules below.
Experiment: Cell viability test in MT-4 cells (CellTiter Glo)
Format: cell-based
Settings: human
Where a name gives a salt, the structure may show the parent alone.
# number only, unit µM dropped from output

Ask: Using the record for Cc1ccccc1CO[P@@](=O)(CO[C@H](C)Cn1cnc2c(N)ncnc21)N[C@@H](C)C(=O)OC(C)C , report its CC50 at 5 days.
Reply: 14.7

Ask: Then this molecule: CC(C)OC(=O)OCOP(=O)(CO[C@H](C)Cn1cnc2c(N)ncnc21)OCOC(=O)OC(C)C [TDF, Tenofovir Disoproxil Fumarate]
Reply: 21.3

Ask: Next record, please: CC(C)OC(=O)[C@H](C)N[P@@](=O)(CO[C@H](C)Cn1cnc2c(N)ncnc21)OCc1ccccc1 (single isomer, unassigned)
Reply: 22.5

Ask: Repeat for the following molecule: CC(C)OC(=O)[C@H](C)N[P@](=O)(CO[C@H](C)Cn1cnc2c(N)ncnc21)Oc1ccccc1
Reply: 13.3

Ask: // same read-out, input: CC(C)OC(=O)[C@H](C)N[P@](=O)(CO[C@H](C)Cn1cnc2c(N)ncnc21)OCc1ccccc1 (single isomer, unassigned)
Reply: 16.9

---

Tested on: HepG2.2.15 cells
Assay: in vitro
Assay type: cell-based
Conditions: comparative test, Table 4
# key: entry, value: CC50

compound	studySystem	CC50
CC(C)OC(=O)[C@H](C)N[P@](=O)(CO[C@H](C)Cn1cnc2c(N)ncnc21)OCc1ccccc1 (single isomer, unassigned) [Compound 3b]	HepG2.2.15 cells	> 100 µM

Kindly consider the entry below.
Ask: Request the reported CC50 associated with CC(C)OC(=O)[C@H](C)N[P@@](=O)(CO[C@H](C)Cn1cnc2c(N)ncnc21)OCc1ccccc1 (single isomer, unassigned) [Compound 3a]
Reply: > 100 µM

---

Assay: Stability in the human liver S9
Format: in vitro ADME
Settings: human liver S9, 1 μM, 60 min
resultType: Remaining (T = 60 min) (%)
Give the quantity in %, number only.

A selection of reference data follows.
compound	Remaining (T = 60 min) [%]
CCOc1ccc2ccc(=O)oc2c1	60
CC(C)OC(=O)[C@H](C)N[P@](=O)(CO[C@H](C)Cn1cnc2c(N)ncnc21)Oc1ccccc1	4

Ask: Consider the compound O=c1ccc2ccc(O)cc2o1 [7-Hydroxycoumarin] and give its measured Remaining (T = 60 min).
Reply: 4

Ask: Item: CC(C)OC(=O)[C@H](C)N[P@@](=O)(CO[C@H](C)Cn1cnc2c(N)ncnc21)OCc1ccccc1 (single isomer, unassigned)
Reply: 6

Ask: How about CC(C)OC(=O)[C@H](C)N[P@](=O)(CO[C@H](C)Cn1cnc2c(N)ncnc21)OCc1ccccc1 (single isomer, unassigned) ?
Reply: 9

Ask: // query: Cc1ccccc1CO[P@@](=O)(CO[C@H](C)Cn1cnc2c(N)ncnc21)N[C@@H](C)C(=O)OC(C)C
Reply: 5

---

Test: Stability in the simulated intestinal fluid
Format: in vitro ADME
Conditions: 10 μM, 120 min
Entries and their measured % 120 min (residue percentage) follow.
// units = %; emit number, no label

Consider the reported % 120 min (residue percentage) for these compounds:
compound	resultType	unitOfMeasurement	quantitativeResult
CC(C)OC(=O)[C@H](C)N[P@@](=O)(CO[C@H](C)Cn1cnc2c(N)ncnc21)OCc1ccccc1 (single isomer, unassigned)	% 120 min (residue percentage)	%	23.45
Cc1ccccc1CO[P@@](=O)(CO[C@H](C)Cn1cnc2c(N)ncnc21)N[C@@H](C)C(=O)OC(C)C	% 120 min (residue percentage)	%	8.33
CC(C)OC(=O)[C@H](C)N[P@](=O)(CO[C@H](C)Cn1cnc2c(N)ncnc21)OCc1ccccc1 (single isomer, unassigned)	% 120 min (residue percentage)	%	20.20

Ask: For the compound shown here, O=C(O)CCCc1ccc(N(CCCl)CCCl)cc1 , give the reported % 120 min (residue percentage).
Reply: 3.11

Ask: And for CC(C)OC(=O)[C@H](C)N[P@](=O)(CO[C@H](C)Cn1cnc2c(N)ncnc21)Oc1ccccc1 ?
Reply: 6.22
